This collection of values is drawn from the supplement of paper PMC6555819.

Tested on: LXRb:RXRa (NR concentration 270 nM, RXRa partner concentration 90 nM)
assay.details: PBM binding z-score (relative to random genomic background probes); higher = stronger binding; sequences stand for … in GC…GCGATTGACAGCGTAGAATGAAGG
In this section we review reported PBM binding z-score values for a set of sequences.

> print(dat)
                       sequence.input  measured.result
1  ACTATTAGTTGAGTCGAGGGCAACCGATAGGTTG             0.34
2  GATACAGGGTCAGCTAGAGGACAGAGTATGGAAA             2.61
3  CGAAGTAGGTCATCCAGGACAGTGAATACATTGA             2.64
4  ACTAGCAGGCCAAGGGTCAATCAAGATTAGTCCG             2.96
5  TCATGTAGGTAAAAGGTGAAAGTCGGTGTGGTAA             1.98
6  ACTAGCAGGCCAAGGCTCACTCAAGATTAGTCCG           -0.701

Exercise: Fill in reported PBM binding z-score for this entry: "CAAACTAAGTCAAGGTCAAAGTCGGTTTGTGCCA"
Solution: 4.15

----------
Tested on: VDR homodimer (NR concentration 270 nM)
assay.details: PBM binding z-score (relative to random genomic background probes); higher = stronger binding; sequences stand for … in GC…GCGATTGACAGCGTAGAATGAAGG
# PBM binding z-score >= 0.7 gives yes, anything below gives no

> print(dat)
                       sequence.input                            tested.target  qualitative.label
1  CCTGACAGGTGAAAGGTAACTCAGTCTGGTACGC  VDR homodimer (NR concentration 270 nM)                 no
2  TCTCGGAGGACACCAAGGTCAGAGCTTTCCAGAG  VDR homodimer (NR concentration 270 nM)                yes
3  TGTCAAAGTTCGAAGGTAACGTAAGTATCCACAC  VDR homodimer (NR concentration 270 nM)                yes
4  CCTACTGGGCCATCAGATCATTGATATCAACGTT  VDR homodimer (NR concentration 270 nM)                 no

Exercise: Given the entry "CGAACTAGGTCATCCAGGACAGTAAATACATTGA" , answer whether its PBM binding z-score meets or surpasses 0.7.
Solution: yes

Exercise: Dear colleague, could you confirm whether "AGTCAAAGTTCATCTAGGTAACGCAAGATATGCT" has PBM binding z-score at or above 0.7?
Solution: yes

Exercise: Could you please find out whether "TCTTCTAGATCAGCAGGTTAAGAAAGCTGGCCAA" has PBM binding z-score that meets 0.7 or exceeds it?
Solution: no

Exercise: Is the recorded value of PBM binding z-score equal to or greater than 0.7 for this sequence? "AATACAGGGTCATTGTAGGCCAGAGTACGCACAG"
Solution: yes

Exercise: Textbook exercise: given the entry "CCAGACAGGTGAGAAGGTGACTCAGCCTCGATTA" , state whether its PBM binding z-score is greater than or equal to 0.7.
Solution: no

Exercise: Quick check, PBM binding z-score >= 0.7? "CCTACTGGGCCAAGGCCATTGATCAGTCAAAGCA"
Solution: no

Exercise: I'd appreciate it if you could say whether "GCTTGTACATCAAGGTTAAGAAAGACTAAGCTAA" has PBM binding z-score at least equal to 0.7.
Solution: no

Exercise: Exam item: decide whether the reported PBM binding z-score for "GATACAGGGTCAACGCCAGAGTACGCGTATTGAT" is at least 0.7.
Solution: yes

Exercise: # check: PBM binding z-score of "ATATGTTGGTTATCGGGTCATTCAGTTTGCGCAT" is greater than or equal to 0.7
Solution: yes

Exercise: Record "CCTTACGGGTCAAGGTCATAGCACGGGTGGTACG" ; criterion: PBM binding z-score no lower than 0.7. Met?
Solution: yes

Exercise: Can "TCTTGTAGATCAAGCAGGTTAAGAAAGCCTGAGT" be said to have PBM binding z-score at or above 0.7?
Solution: no

Exercise: API: above_or_equal(metric=PBM binding z-score, cutoff=0.7) for item "ATCTCTAGGTAAGAAGTTCAGTGAAAGAGAGGAC"
Solution: yes

Exercise: Is it the case that "ACTCAAAGTTCAGGACGAGGTAACGTAAAGCACG" has PBM binding z-score reaching or exceeding 0.7?
Solution: yes

Exercise: Say whether "GCGACTGGGGCAAAGCAGGTTACCACAAGGTTGG" shows PBM binding z-score of 0.7 or more.
Solution: no

Exercise: Given the entry "TTACCAAGGTGAAGGGTCGTTGATGCACGCCTTG" , answer whether its PBM binding z-score meets or surpasses 0.7.
Solution: yes

Exercise: Could you tell me if the measured PBM binding z-score of "TCTATTAGTTGATTAGGGCAACCGCAACAGCGGA" reaches 0.7 or more?
Solution: no

----------
Tested on: LXRb homodimer (NR concentration 270 nM)
assay.details: PBM binding z-score (relative to random genomic background probes); higher = stronger binding; sequences stand for … in GC…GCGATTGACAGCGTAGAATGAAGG
The entries below come with measured PBM binding z-score values attached.
// keep it numeric: no unit symbol after the value

Recorded results for 6 sequences are shown here.
> print(dat)
                       sequence.input  measured.result
1  GCTGGGAGGACAAGGTCAGAGCTTTGTCCGTAGA           -0.657
2  GTTGCTAGGTCAGGTTGGTCAGCTAACGGGTACG            0.434
3  TGTCAAAGTTCAAAGGAAACGTAAGTATCCACAC             1.37
4  CGAACTAGGTCGGAACAGGACAGTGAAGGATGAT               -1
5  GCTGCTAGGTCTGGTTGGTCAGCTAACGGGTACG           -0.475
6  CGAACTAGGTCAAAGGTCAAAGTCGAGCCAACCA             2.53

Exercise: Look up and report measured PBM binding z-score for this entry: "TTACCAAGGTGAAAGGTCGTCGATGCACGCCTTG"
Solution: -0.541

Exercise: Retrieve PBM binding z-score measured for "ACAGACAGGTGATGAAGGGAACTCAGGCTATCAT" and print it.
Solution: -0.495

Exercise: Check the records and state PBM binding z-score for "CTCGAAAAGTCGTGCTCAGGTGAGTATACCAAAC"
Solution: -0.108

Exercise: Return the recorded PBM binding z-score value; entry: "TCATATAGGTAATGCAGGTGAAAGTCGGCATCTA"
Solution: -0.224

Exercise: Return value of PBM binding z-score for input "CTCGAAGGGTCGTGCTCAGGTGAGTATACCAAAC" , no commentary.
Solution: -0.487

Exercise: Indicate the recorded PBM binding z-score value for this sequence: "ACTCGGAAGACAAAGGTCAGAGCTACGCCAGTGA"
Solution: 0.387

----------
System: PPARg:RXRa 270nM:90nM, anti-RXR (NR concentration 270 nM, RXRa partner concentration 90 nM)
assay.details: PBM binding z-score (relative to random genomic background probes); higher = stronger binding; sequences stand for … in GC…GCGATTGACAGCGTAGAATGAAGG
Classification field: Met = PBM binding z-score at or over 2; Not met = PBM binding z-score under 2.

> print(dat)
                       sequence.input  qualitative.label
1  ATACCAAGGTGATCTTGAGGTCGTTGATACTAAC            Not met
2  TCTTGTAGATCAACAGGAGATTAAGAAAGATCGA            Not met
3  CCTACTGGGCCTCGAAAGGTCATTGATTCAGTGA                Met
4  ACTTACGGGTTAACGAGGTTATAGCACGCGTATA                Met
5  AGAATGAGGTTATTAAGATCAGGGGATTGCGGTC            Not met
6  GCGACTGGGGCATCAGCAGGTTACGATAACTTAA            Not met

Exercise: Given the entry "GCTGCTAGGTCAACTTATGGTCAGCTAAAGCTCG" , answer whether its PBM binding z-score meets or surpasses 2.
Solution: Met

Exercise: Check the entry "TTACCAAGGTGTAGGTCGTTGATCCCTCTGTAGA" : does PBM binding z-score equal or exceed 2?
Solution: Not met

Exercise: Does the sequence "ACTAGTTGATCAGCTGAGGTCACACACAATTCGG" have recorded PBM binding z-score that is 2 or more?
Solution: Met
